system-name: human sGC (Homo sapiens, UniProt Q02153)
Sequence (Q02153 whole entry): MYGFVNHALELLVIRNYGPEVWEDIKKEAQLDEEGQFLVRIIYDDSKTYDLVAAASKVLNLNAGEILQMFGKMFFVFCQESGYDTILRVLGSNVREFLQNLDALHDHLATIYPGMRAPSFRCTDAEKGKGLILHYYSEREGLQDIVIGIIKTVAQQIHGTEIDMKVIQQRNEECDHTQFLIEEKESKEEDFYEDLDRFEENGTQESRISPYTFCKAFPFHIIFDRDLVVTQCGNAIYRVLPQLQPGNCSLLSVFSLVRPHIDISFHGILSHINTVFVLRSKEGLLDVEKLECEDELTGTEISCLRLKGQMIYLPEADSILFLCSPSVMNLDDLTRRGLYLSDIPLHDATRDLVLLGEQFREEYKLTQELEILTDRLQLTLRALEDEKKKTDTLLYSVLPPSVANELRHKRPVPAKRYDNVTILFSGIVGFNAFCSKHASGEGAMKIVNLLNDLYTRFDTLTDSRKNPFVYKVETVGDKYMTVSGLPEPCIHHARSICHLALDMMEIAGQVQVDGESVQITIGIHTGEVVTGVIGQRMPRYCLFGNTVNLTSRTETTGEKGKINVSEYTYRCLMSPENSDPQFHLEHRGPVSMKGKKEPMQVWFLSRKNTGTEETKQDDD
Sequence (Q02108 whole entry partner): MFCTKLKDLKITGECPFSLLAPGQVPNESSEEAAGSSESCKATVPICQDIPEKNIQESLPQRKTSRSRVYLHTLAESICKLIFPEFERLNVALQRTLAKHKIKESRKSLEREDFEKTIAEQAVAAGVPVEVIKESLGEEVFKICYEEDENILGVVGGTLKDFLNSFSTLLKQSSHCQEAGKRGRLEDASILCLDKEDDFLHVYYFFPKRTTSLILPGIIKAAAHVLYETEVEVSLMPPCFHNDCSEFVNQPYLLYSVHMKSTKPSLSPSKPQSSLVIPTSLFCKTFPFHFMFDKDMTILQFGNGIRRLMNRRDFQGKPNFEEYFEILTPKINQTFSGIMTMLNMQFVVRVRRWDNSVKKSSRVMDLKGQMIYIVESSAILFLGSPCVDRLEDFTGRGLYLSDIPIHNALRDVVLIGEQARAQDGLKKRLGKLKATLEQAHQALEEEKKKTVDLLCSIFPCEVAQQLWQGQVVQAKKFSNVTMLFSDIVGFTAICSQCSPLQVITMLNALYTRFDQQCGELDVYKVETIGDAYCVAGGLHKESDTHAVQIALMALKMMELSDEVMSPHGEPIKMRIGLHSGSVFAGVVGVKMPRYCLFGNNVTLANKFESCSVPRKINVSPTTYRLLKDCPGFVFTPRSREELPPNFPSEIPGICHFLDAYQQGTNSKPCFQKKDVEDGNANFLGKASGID
run-description: sGC enzyme assay, fluorescence polarisation of labelled cGMP
Format: biochemical
reported-conditions: human sGC 1 nM, FP assay; concentration able to increase by 5-fold basal cGMP
Can you tell me sGC pEC500 for the items I'm about to list?
One number for each entry.

// known answers, use as guide
>>> print(df.to_string())
                               query_smiles                               system_name  value_reported
0  Cc1cc(OCCCC#N)ccc1COc1ccccc1-c1cccc(-n2ncc(C(=O)O)c2C(F)(F)F)n1  human sGC (Homo sapiens, UniProt Q02153)            7.73
1  Cc1cc(OCCCn2ccc(C(F)(F)F)n2)ccc1CCc1ccccc1-c1cccc(-n2ncc(C(=O)O)c2C(F)(F)F)n1  human sGC (Homo sapiens, UniProt Q02153)            7.88
2  Cc1cc(OCCCC(F)(F)F)ccc1CCc1ccccc1-c1cccc(-n2ncc(C(=O)O)c2C(F)(F)F)n1  human sGC (Homo sapiens, UniProt Q02153)            6.95
3  COCCCOc1ccc(COc2ccccc2-c2cccc(-n3ncc(C(=O)O)c3C(F)(F)F)n2)c(C)c1  human sGC (Homo sapiens, UniProt Q02153)            7.79
4  N#CCCCOc1ccc(COc2ccccc2-c2cccc(-n3ncc(C(=O)O)c3C(F)(F)F)n2)cc1  human sGC (Homo sapiens, UniProt Q02153)            7.28
5  COCCCOc1ccc(COc2ccccc2-c2cccc(-n3ncc(C(=O)O)c3C(F)(F)F)n2)cc1  human sGC (Homo sapiens, UniProt Q02153)             7.1

Now take the following compound into account.
query: Give the measured sGC pEC500 of O=C(O)c1cnn(-c2cccc(-c3ccccc3CCc3ccc(OCCCN4CCOCC4)cc3)n2)c1C(F)(F)F .
result: 6.19

====

system-name: soluble guanylate cyclase (sGC) (Rattus norvegicus)
Construct: endogenous in cells; host or cells: primary rat aortic smooth muscle cells
run-description: Cellular assay, VASP phosphorylation in rat aortic smooth muscle cells with ODQ
Format: cell-based
reported-conditions: phospho-VASP signal, primary rat aortic smooth muscle cells, 10 μM ODQ, 30 min incubation; 50% vs. Bmax; read-out: Cell assay pEC50 (converted)
Counter-ions that a name gives are not always drawn.
// class assignment uses EC50 with these ranges: low (below 0.008 µM), mid (0.008 µM to below 0.06 µM), high (0.06 µM or more)

Example entries begin here.
>>> print(df.to_string())
                                   compound  assigned_class
0  Cc1cc(OCCCn2cccn2)ccc1CCc1ccc(F)cc1-c1cccc(-n2ncc(C(=O)O)c2C(F)(F)F)n1 [Example 14]             low
1  COCCCOc1ccc(COc2ccccc2-c2cccc(-n3ncc(C(=O)O)c3C(F)(F)F)n2)c(F)c1 [Example 6]            high
2  COc1cnn(CCCOc2ccc(CCc3ccc(F)cc3-c3cccc(-n4ncc(C(=O)O)c4C(F)(F)F)n3)c(C)c2)c1 [Example 16, sodium salt]             low
3  Cc1cc(OCCCC(F)(F)F)ccc1CCc1ccccc1-c1cccc(-n2ncc(C(=O)O)c2C(F)(F)F)n1 [Example 1]             mid
4  Cc1cc(OCCCn2ccc(C(F)(F)F)n2)ccc1CCc1ccccc1-c1cccc(-n2ncc(C(=O)O)c2C(F)(F)F)n1 [Example 3]             low

query: Class (by measured EC50) for Cc1cc(OCCCn2cc(C#N)cn2)ccc1CCc1ccc(F)cc1-c1cccc(-n2ncc(C(=O)O)c2C(F)(F)F)n1 [Example 15, sodium salt]
result: mid

query: # bin label for Cc1cc(OCCCC(F)(F)F)ccc1COc1ccccc1-c1cccc(-n2ncc(C(=O)O)c2C(F)(F)F)n1 [Example 11]
result: high

query: Could you place Cc1cc(OCCCC#N)ccc1COc1ccccc1-c1cccc(-n2ncc(C(=O)O)c2C(F)(F)F)n1 [Example 9] in its proper category? Many thanks.
result: high

query: Please classify: CCOC(=O)c1cnn(-c2cccc(-c3ccccc3CCc3ccc(OCCCC(F)(F)F)cc3C)n2)c1C(F)(F)F [Example 19]
result: high

====

system-name: soluble guanylate cyclase (sGC) (Rattus norvegicus, UniProt P20595)
Construct: endogenous in cells; host or cells: primary rat aortic smooth muscle cells
Sequence (P20595 1-619): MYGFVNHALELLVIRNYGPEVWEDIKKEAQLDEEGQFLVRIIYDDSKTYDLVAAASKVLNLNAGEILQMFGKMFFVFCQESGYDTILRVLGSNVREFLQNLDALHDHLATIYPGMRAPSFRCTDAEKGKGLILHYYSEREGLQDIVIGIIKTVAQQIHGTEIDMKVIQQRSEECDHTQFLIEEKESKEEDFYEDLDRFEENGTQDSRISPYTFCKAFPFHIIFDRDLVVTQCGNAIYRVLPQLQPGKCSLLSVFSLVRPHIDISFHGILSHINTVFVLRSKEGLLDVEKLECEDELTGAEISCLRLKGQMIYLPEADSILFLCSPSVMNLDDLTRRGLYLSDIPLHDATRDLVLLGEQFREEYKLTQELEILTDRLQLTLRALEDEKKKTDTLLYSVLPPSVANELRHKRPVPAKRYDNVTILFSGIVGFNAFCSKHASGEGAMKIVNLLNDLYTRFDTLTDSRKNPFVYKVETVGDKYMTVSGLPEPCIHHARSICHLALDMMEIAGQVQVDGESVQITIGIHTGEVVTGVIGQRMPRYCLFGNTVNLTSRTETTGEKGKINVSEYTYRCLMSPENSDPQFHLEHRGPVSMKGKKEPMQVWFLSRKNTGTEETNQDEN
Sequence (P19686 1-690 partner): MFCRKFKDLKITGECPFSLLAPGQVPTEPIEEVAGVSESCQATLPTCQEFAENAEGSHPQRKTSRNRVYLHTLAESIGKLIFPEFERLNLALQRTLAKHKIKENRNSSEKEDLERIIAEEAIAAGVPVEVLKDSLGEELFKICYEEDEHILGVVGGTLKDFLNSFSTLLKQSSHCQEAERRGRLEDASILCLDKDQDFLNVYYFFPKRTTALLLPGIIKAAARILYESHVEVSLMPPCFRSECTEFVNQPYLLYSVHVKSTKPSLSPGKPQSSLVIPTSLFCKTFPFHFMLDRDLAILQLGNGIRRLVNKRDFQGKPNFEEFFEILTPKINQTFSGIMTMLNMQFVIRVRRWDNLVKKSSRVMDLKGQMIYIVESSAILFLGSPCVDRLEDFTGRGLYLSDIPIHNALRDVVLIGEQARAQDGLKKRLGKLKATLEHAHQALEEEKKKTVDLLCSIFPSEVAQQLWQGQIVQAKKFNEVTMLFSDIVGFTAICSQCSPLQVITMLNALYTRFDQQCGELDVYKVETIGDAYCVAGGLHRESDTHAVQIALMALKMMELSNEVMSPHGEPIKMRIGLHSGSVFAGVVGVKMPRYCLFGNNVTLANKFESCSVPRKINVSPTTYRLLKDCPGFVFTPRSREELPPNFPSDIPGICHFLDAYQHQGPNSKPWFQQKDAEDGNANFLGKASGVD
run-description: Cellular assay, VASP phosphorylation in rat aortic smooth muscle cells with ODQ
Assay type: cell-based
reported-conditions: phospho-VASP signal, primary rat aortic smooth muscle cells, 10 μM ODQ, 30 min incubation; 50% vs. Bmax; read-out: Cell assay pEC50 (converted)
Counter-ions that a name gives are not always drawn.
Please go through the items and note down their EC50.
// return the numeric value with its unit appended

Take a look at these entries with their results.
                                   compound                               system_name  value_reported
0  COCCCOc1ccc(COc2ccccc2-c2cccc(-n3ncc(C(=O)O)c3C(F)(F)F)n2)c(C)c1  soluble guanylate cyclase (sGC) (Rattus norvegicus, UniProt P20595)         91.2 nM
1  Cc1cc(OCCCn2cncn2)ccc1CCc1ccc(F)cc1-c1cccc(-n2ncc(C(=O)O)c2C(F)(F)F)n1 [Example 17, sodium salt]  soluble guanylate cyclase (sGC) (Rattus norvegicus, UniProt P20595)           20 nM
2  Cc1cc(OCCCC(F)(F)F)ccc1CCc1ccccc1-c1cccc(-n2ncc(C(=O)OC(C)C)c2C(F)(F)F)n1  soluble guanylate cyclase (sGC) (Rattus norvegicus, UniProt P20595)         1260 nM

Here is the next item to consider.
query: GET /values?readout=EC50&item= Cc1cc(OCCCC(F)(F)F)ccc1CCc1ccc(F)cc1-c1cccc(-n2ncc(C(=O)O)c2C(F)(F)F)n1
result: 1.26 nM

====

system-name: soluble guanylate cyclase (sGC) (Rattus norvegicus, UniProt P20595)
Construct: endogenous in cells; host or cells: primary rat aortic smooth muscle cells
run-description: Cellular assay, VASP phosphorylation in rat aortic smooth muscle cells with ODQ
Format: cell-based
reported-conditions: phospho-VASP signal, primary rat aortic smooth muscle cells, 10 μM ODQ, 30 min incubation; 50% vs. Bmax; read-out: Cell assay pEC50 (converted)
Counter-ions that a name gives are not always drawn.
So I've got a bunch of compounds here, and I need their EC50 values.
Answers are plain numbers, in nM.

In [3]: df
Out[3]:
                                   compound  recorded_metric  result_unit  value_reported
0  Cc1cc(OCCCC(F)(F)F)ccc1CCc1ccccc1-c1cccc(-n2ncc(C(=O)O)c2C(F)(F)F)n1 [Example 21, sodium salt]             EC50           nM            7.94

Okay, here is my list. What is EC50 for each of these?
1. O=C(O)c1cnn(-c2cccc(-c3ccccc3OCc3ccc(OCCCC(F)(F)F)cc3F)n2)c1C(F)(F)F
2. Cc1cc(OCCCn2ccc(C#N)n2)ccc1CCc1ccc(F)cc1-c1cccc(-n2ncc(C(=O)O)c2C(F)(F)F)n1 [Example 18, sodium salt]

result:
1. 60.3
2. 7.94
